# Test system: HT-1080 (ATCC, CCL-121) cells
# assay-protocol: HT-1080 cell viability assay with ferroptosis inducer RSL3 (Cell Titer-Glo)
# Format: cell-based
# reported-conditions: Homo sapiens; HT-1080 cells treated with RSL3; 3-fold, 10-point dilution, 1.1 μM highest concentration; Table 2; read-out: EC50 (nM), ferroptosis inhibitory activity
parameter-measured: EC50

Worked examples, 5 molecules total:
CC1CCC(C)N1c1ccc(Nc2ccc3c(c2)n(C)c(=O)n3C)cc1 (centres unmarked): 0.1 to 100 nM
COCCn1c(=O)n(C)c2ccc(Nc3ccc(N4CCC(C(F)(F)F)CC4)cc3)cc21: 0.1 to 100 nM
Cc1cc(N2CC(C)OC(C)C2)ccc1Nc1ccc2c(c1)CNC2 (centres unmarked): 0.1 to 100 nM
CCn1[nH]c2cc(Nc3ccc(N4CCC(C(F)(F)F)CC4)cc3)ccc2c1=O: 0.1 to 100 nM
Cc1cc(Nc2ccc3c(c2)OCC(=O)N3)ccc1N1CCC(C(F)(F)F)CC1: 100 to 1000 nM

Q. Quick one: EC50 for CN1Cc2cc(Nc3ccc(N4CCC(C(F)(F)F)CC4)c(F)c3)ccc2C1=O ?
A. 0.1 to 100 nM

Q. Quick one: EC50 for CN(C)CCN1C(=O)COc2cc(Nc3ccc(N4CCC(C(F)(F)F)CC4)cc3)ccc21 ?
A. 0.1 to 100 nM

Q. Quick one: EC50 for Cc1nc2ccc(Nc3ccc(N4CCC(C(F)(F)F)CC4)cc3)cc2o1 ?
A. 0.1 to 100 nM
